Tested on: A549
Test: Cytotoxicity against human A549 cells
Type: functional
Conditions: read-out: ED50 (the source's name)
Catalogue of EC50 readings, one per entry.

Reference set (2 entries):
CC[C@@H](/C=C/[C@@H](C)[C@H]1CC[C@H]2C3=C[C@@H](OC)[C@@]4(O)C[C@@H](O)CC[C@]4(C)[C@H]3CC[C@]12C)C(C)C	4.4 µg/mL
CC(C)[C@H](C)/C=C/[C@@H](C)[C@H]1CC[C@H]2C3=C[C@@H](O)[C@@]4(O)C[C@@H](O)CC[C@]4(C)[C@H]3CC[C@]12C	> 5 µg/mL

[Q] Recall and state the measured EC50 for `CC(C)C/C=C/[C@@H](C)[C@H]1CC[C@H]2C3=CC(=O)[C@@]4(O)C[C@@H](O)CC[C@]4(C)[C@@]3(O)CC[C@]12C` .
[A] 5 µg/mL

[Q] Provide EC50 value for the following molecule: `CC(C)C/C=C/[C@@H](C)[C@H]1CC[C@H]2C3=C[C@@H](O)[C@@]4(O)C[C@@H](O)CC[C@]4(C)[C@@]3(O)CC[C@]12C`
[A] > 5 µg/mL

[Q] Look up and report measured EC50 for this entry: `CC(C)C/C=C/[C@@H](C)[C@H]1CC[C@H]2C3=C[C@@H](O)[C@@]4(O)C[C@@H](O)CC[C@]4(C)[C@H]3CC[C@]12C`
[A] > 5 µg/mL

* * *

Tested on: A549
Experiment: Cytotoxicity against human A549 cells
Format: functional
Details: read-out: ED50 (the source's name)
So basically, if EC50 comes in under 4 µg/mL it's label 1, and if it's 4 µg/mL or more it's label 0.

Here are 6 molecules together with their reported answers.
CC(C)C/C=C/[C@@H](C)[C@H]1CC[C@H]2C3=C[C@H](O)[C@@]4(O)C[C@@H](O)CC[C@]4(C)[C@H]3CC[C@]12C [HOMAXISTEROL D1]	label 1
CC[C@@H](/C=C/[C@@H](C)[C@H]1CC[C@H]2C3=C[C@@H](O)[C@@]4(O)C[C@@H](O)CC[C@]4(C)[C@H]3CC[C@]12C)C(C)C	label 0
COc1cccc2c1C(=O)c1c(O)c3c(c(O)c1C2=O)C[C@@](O)(C(=O)CO)C[C@@H]3O[C@H]1C[C@H](N)[C@H](O)[C@H](C)O1 (stereo in doubt)	label 1
CC(C)C(C)/C=C/[C@@H](C)[C@H]1CC[C@@H]2[C@]1(C)CC[C@@]13O[C@@]21[C@H](O)[C@@H]1O[C@@]12C[C@@H](O)CC[C@]32C (some centres undefined)	label 0
CC[C@@H](/C=C/[C@@H](C)[C@H]1CC[C@H]2C3=C[C@@H](O)[C@@]4(O)C[C@@H](O)CC[C@]4(C)[C@@]3(O)CC[C@]12C)C(C)C	label 0
CC[C@@H](/C=C/[C@@H](C)[C@H]1CC[C@@H]2[C@]1(C)CC[C@@]13O[C@@]21[C@H](O)[C@@H]1O[C@@]12C[C@@H](O)CC[C@]32C)C(C)C (relative stereo)	label 1

[Q] Determine if `CO[C@@H]1C=C2[C@@H]3CC[C@H]([C@H](C)/C=C/CC(C)C)[C@@]3(C)CC[C@@H]2[C@@]2(C)CC[C@H](O)C[C@]12O` shows EC50 strictly lower than 4 µg/mL.
[A] label 0
